What cell viability was measured for each of the following?
system: HCI13 (cells of an ER-positive luminal breast cancer xenograft); assay: cell viability (% of vehicle); higher = less cytotoxic; details: 10 µM; 72 h;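 further: PDX cells carrying CMV promoter-driven luciferase, viability read as total photon flux per second by IVIS imaging following D-luciferin, vehicle control 0.1% DMSO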

Using known records, supply cell viability for CS(=O)(=O)O.OC(CCN1CCCCC1)(c1ccccc1)c1ccccc1 [Pridinol Methanesulfonate] 92.6

# return recorded cell viability for input CCCCOc1cc(C(=O)NCCN(CC)CC)c2ccccc2n1.Cl [Dibucaine (Cinchocaine) HCl] 116

Output measured cell viability for this item: CC(C)Cn1cnc2c(N)nc3ccccc3c21 [Imiquimod] 91

Give the reported value of cell viability for this record: O=C([O-])c1ccccc1O.[Na+] [Sodium salicylate] 107

# return recorded cell viability for entry Nc1nc(=O)n(C2CSC(CO)O2)cc1F (centres undefined) [Emtricitabine] 113

Return the recorded cell viability value; entry: Cl.NC(N)=NC(=O)c1nc(Cl)c(N)nc1N.O.O [Amiloride HCl dihydrate] 102

Return cell viability for the following compound: Clc1ccc(COC(Cn2ccnc2)c2ccc(Cl)cc2Cl)c(Cl)c1 (centres undefined) [Miconazole] 47.3

For the compound COc1ccc(O)cc1 [Mequinol] , give its measured cell viability value. 124

Please list cell viability recorded for the compound Cc1nnc(NS(=O)(=O)c2ccc(N)cc2)s1 [Sulfamethizole] 89.2

Just for reference, the supplement of paper PMC6992640 is where these values come from.
